Cited source: paper PMC10569036

- assayComment: shake flask on a mixture of 185; loss from the water phase only; LC-Orbitrap peak areas
- cond: room
Class (by log partition n-undecane / HPLC water, unbuffered, traces of methanol / DMSO) -- lower band = under -0.8 log10, central band = from -0.8 log10 up to 0.2 log10, upper band = 0.2 log10 and over

                                    compound    classlabel
 0  CCCCC(O)(Cn1cncn1)c1ccc(Cl)cc1Cl (stereo not drawn)    upper band
 1  Nc1nc(Cl)nc2c1ncn2[C@H]1C[C@H](O)[C@@H](CO)O1    lower band
 2  O=C(O)CCN(C1(C(=O)NO)CCCC1)S(=O)(=O)c1ccc(Oc2ccc(F)cc2)cc1  central band
 3  CCc1ccc(C(=O)NN(C(=O)c2cc(C)cc(C)c2)C(C)(C)C)cc1    upper band
 4  CC(C)C1(C)N=C(c2nc3ccccc3cc2C(=O)O)NC1=O (stereo not drawn)    lower band
 5            CN(C1CCCCC1)S(=O)(=O)c1ccccc1N    upper band
 6          Cc1oncc1C(=O)Nc1ccc(C(F)(F)F)cc1  central band
 7       Cc1cc(C)nc(NS(=O)(=O)c2ccc(N)cc2)n1    lower band
 8                  COC(=O)c1sccc1S(N)(=O)=O    lower band
 9           CC(C)(C#N)Nc1nc(Cl)nc(NC2CC2)n1  central band
10   CCC(C)(CC)c1cc(NC(=O)c2c(OC)cccc2OC)on1    upper band
11     O=P(OC(CCl)CCl)(OC(CCl)CCl)OC(CCl)CCl    upper band
12         COC(=O)c1ccc(C(=O)OC)c(C(=O)OC)c1    upper band
13                    CC(C)(C)c1ccc(O)c(O)c1  central band
14                     c1ccc(CCCc2ccncc2)cc1  central band
15  C[C@H](CCC(=O)O)[C@H]1CC[C@H]2[C@@H]3CC[C@@H]4C[C@H](O)CC[C@]4(C)[C@H]3CC[C@]12C  central band
16             C=C(C)C(=O)OCCOCCOC(=O)C(=C)C  central band
17  CCCCCCCCCCCC(=O)OCC(O)CO (stereo not drawn)    lower band
18  CCCC1COC(Cn2cncn2)(c2ccc(Cl)cc2Cl)O1 (stereo not drawn)  central band
19                           CCCCc1ccc(O)cc1    lower band
20  CCCCC(CC)COC(=O)c1ccccc1C(=O)O (stereo not drawn)    lower band
21  CCc1nn(C)c(C(=O)NCc2ccc(C(C)(C)C)cc2)c1Cl    upper band

---

- assayComment: shake flask on a mixture of 185; loss from the water phase only; LC-QTOF peak areas
- cond: room
Friendly reminder: log partition n-octane / HPLC water, unbuffered, traces of methanol / DMSO below -0.1 log10 is yes, at or above is no.

                                   compound  classlabel
0  CC(C)C1(C)N=C(c2nc3ccccc3cc2C(=O)O)NC1=O (stereo not shown)         yes
1  CCc1nn(C)c(C(=O)NCc2ccc(C(C)(C)C)cc2)c1Cl          no
2  CO/N=C(/C1=NOCCO1)c1ccccc1Oc1ncnc(Oc2ccccc2Cl)c1F          no
3                 O=C(c1ccccc1)c1ccc(O)cc1O         yes
4       Oc1c(Cl)cc(Cl)cc1Sc1cc(Cl)cc(Cl)c1O          no
5            CN(C1CCCCC1)S(=O)(=O)c1ccccc1N         yes
6  CN/C(=N/[N+](=O)[O-])NCC1CCOC1 (stereo not shown)         yes
7  Oc1c(Cl)cc(Cl)c(Cl)c1Cc1c(O)c(Cl)cc(Cl)c1Cl          no
8  Cc1cc2c3c(c1)C(c1ccccc1)=N[C@@H](NC(=O)c1ccncc1)C(=O)N3CC2         yes
9  CCc1ccc(C(=O)NN(C(=O)c2cc(C)cc(C)c2)C(C)(C)C)cc1          no
